Test system: histone deacetylase partially purified from B16/BL6 cells
Experiment: Inhibitory activity against histone deacetylase enzyme
Type: biochemical, mouse
Settings: crude enzyme from B16/BL6 cells, [3H]acetylated histone H4 peptide substrate, 37 for 3 hours; read-out: 50% inhibitory concentration
Non-standard residues stand in square brackets, D forms with d. Residues, ends and D or L forms follow the SMILES beside them. *: point of attachment. Asu = N[C@@H](CCCCCC(=O)O)C(=O)O; Cha = N[C@@H](CC1CCCCC1)C(=O)O; dCha = N[C@H](CC1CCCCC1)C(=O)O; Ac8c = NC1(C(=O)O)CCCCCCC1; Ac7c = NC1(C(=O)O)CCCCCC1; Pip = O=C(O)[C@@H]1CCCCN1; NHOH = ON*
Attribute measured: IC50 (nM)

Examples with their reported IC50 follow.
{"Molecule": "O=C(CCCCC[C@@H]1NC(=O)[C@H]2CCCN2C(=O)[C@H](Cc2ccccc2)NC(=O)C2(CCCCCCC2)NC1=O)NO [CHAP76, cyclo(-L-Asu(NHOH)-Acc8-L-Phe-D-Pro-)] (cyclo([Asu](NHOH)[Ac8c]F[dP]))", "System under test": "histone deacetylase partially purified from B16/BL6 cells", "Measurement unit": "nM", "Measured result": 3.99}
{"Molecule": "O=C(CCCCC[C@@H]1NC(=O)[C@H]2CCCN2C(=O)[C@H](Cc2ccccc2)NC(=O)C2(CCc3ccccc32)NC1=O)NO (single isomer, unassigned) [CHAP83, cyclo(-L-Asu(NHOH)-1Ain(s)-L-Phe-D-Pro-)]", "System under test": "histone deacetylase partially purified from B16/BL6 cells", "Measurement unit": "nM", "Measured result": 1.95}

[I] O=C(CCCCC[C@@H]1NC(=O)[C@H]2CCCN2C(=O)[C@H](Cc2ccccc2)NC(=O)C2(CCCCCC2)NC1=O)NO [CHAP71, cyclo(-L-Asu(NHOH)-Acc7-L-Phe-D-Pro-)] (cyclo([Asu](NHOH)[Ac7c]F[dP]))
[II] O=C(CCCCC[C@@H]1NC(=O)[C@@H]2CCCCN2C(=O)[C@H](CC2CCCCC2)NC(=O)[C@@H](CC2CCCCC2)NC1=O)NO [CHAP78, cyclo(-L-Asu(NHOH)-D-Cha-L-Cha-L-Pip-)] (cyclo([Asu](NHOH)[dCha][Cha][Pip]))
stdin: Exercise: compare I and II ; which one has the greater IC50? Answer with the label corresponding to your selection.
stdout: II

====

Tested on: histone deacetylase partially purified from B16/BL6 cells
Assay: Inhibitory activity against histone deacetylase enzyme
Format: biochemical, mouse
Conditions: crude enzyme from B16/BL6 cells, [3H]acetylated histone H4 peptide substrate, 37 for 3 hours; read-out: 50% inhibitory concentration
Non-standard residues stand in square brackets, D forms with d. Residues, ends and D or L forms follow the SMILES beside them. ξ: configuration not given here. *: point of attachment. Asu = N[C@@H](CCCCCC(=O)O)C(=O)O; Cha = N[C@@H](CC1CCCCC1)C(=O)O; Ile(3ξ) = CCC(C)[C@H](N)C(=O)O; dCha = N[C@H](CC1CCCCC1)C(=O)O; Pip = O=C(O)[C@@H]1CCCCN1; dPip = O=C(O)[C@H]1CCCCN1; Ac5c = NC1(C(=O)O)CCCC1; NHOH = ON*
Attribute measured: IC50 (nM)

Known IC50 results, listed for orientation:
{"Compound": "CCC(C)[C@@H]1NC(=O)[C@@H](CC2CCCCC2)NC(=O)[C@H](CCCCCC(=O)NO)NC(=O)[C@@H]2CCCCN2C1=O (stereo partly drawn) [CHAP87, cyclo(-L-Asu(NHOH)-D-Cha-L-Ile-L-Pip-)] (cyclo([Asu](NHOH)[dCha][Ile(3ξ)][Pip]))", "Measurement unit": "nM", "IC50": 1.98}
{"Compound": "O=C(CCCCC[C@@H]1NC(=O)[C@H]2CCCN2C(=O)[C@H](Cc2ccccc2)NC(=O)C2(CCCC2)NC1=O)NO [CHAP54, cyclo(-L-Asu(NHOH)-Acc5-L-Phe-D-Pro-)] (cyclo([Ac5c]F[dP][Asu](NHOH)))", "Measurement unit": "nM", "IC50": 3.02}

[A] CC[C@H](C)[C@@H]1NC(=O)[C@@H](CC2CCCCC2)NC(=O)[C@H](CCCCCC(=O)NO)NC(=O)[C@H]2CCCCN2C1=O [CHAP86, cyclo(-L-Asu(NHOH)-D-Cha-L-Ile-D-Pip-)] (cyclo([Asu](NHOH)[dCha]I[dPip]))
[B] CC(C)C[C@@H]1NC(=O)[C@@H](CC2CCCCC2)NC(=O)[C@H](CCCCCC(=O)NO)NC(=O)[C@H]2CCCCN2C1=O [CHAP85, cyclo(-L-Asu(NHOH)-D-Cha-L-Leu-D-Pip-)] (cyclo([Asu](NHOH)[dCha]L[dPip]))
stdin: Short answer wanted: higher IC50, A or B ? To answer, give the label that identifies your chosen option.
stdout: A
(A: 3.14 nM, B: 1.96 nM)

[a] O=C(CCCCC[C@@H]1NC(=O)[C@H]2CCCCN2C(=O)[C@H](CC2CCCCC2)NC(=O)[C@@H](CC2CCCCC2)NC1=O)NO [CHAP79, cyclo(-L-Asu(NHOH)-D-Cha-L-Cha-D-Pip-)] (cyclo([Asu](NHOH)[dCha][Cha][dPip]))
[b] CC(C)C[C@@H]1NC(=O)[C@@H](CC2CCCCC2)NC(=O)[C@H](CCCCCC(=O)NO)NC(=O)[C@@H]2CCCCN2C1=O [CHAP84, cyclo(-L-Asu(NHOH)-D-Cha-L-Leu-L-Pip-)] (cyclo([Asu](NHOH)[dCha]L[Pip]))
[c] O=C(CCCCC[C@@H]1NC(=O)[C@H]2CCCN2C(=O)[C@H](Cc2ccccc2)NC(=O)C2(CCc3ccccc32)NC1=O)NO (single isomer, unassigned) [CHAP82, cyclo(-L-Asu(NHOH)-1Ain(f)-L-Phe-D-Pro-)]
stdin: Ordering criterion: IC50; begin with the maximum. Give me the labels in the order the question wants.
stdout: a, b, c

====

Tested on: histone deacetylase partially purified from B16/BL6 cells
Assay: Inhibitory activity against histone deacetylase enzyme
Format: biochemical, mouse
Settings: crude enzyme from B16/BL6 cells, [3H]acetylated histone H4 peptide substrate, 37 for 3 hours; read-out: 50% inhibitory concentration
pIC50: −log10 of the molar value. Non-standard residues stand in square brackets, D forms with d. Residues, ends and D or L forms follow the SMILES beside them. *: point of attachment. Asu = N[C@@H](CCCCCC(=O)O)C(=O)O; Aic = NC1(C(=O)O)Cc2ccccc2C1; dPip = O=C(O)[C@H]1CCCCN1; Ac6c = NC1(C(=O)O)CCCCC1; Aib = CC(C)(N)C(=O)O; NHOH = ON*
Attribute measured: pIC50

Consider the reported pIC50 for these compounds:
{"Compound": "O=C(CCCCC[C@@H]1NC(=O)[C@H]2CCCN2C(=O)[C@H](Cc2ccccc2)NC(=O)C2(Cc3ccccc3C2)NC1=O)NO [CHAP81, cyclo(-L-Asu(NHOH)-2Ain-L-Phe-D-Pro-)] (cyclo([Aic]F[dP][Asu](NHOH)))", "System under test": "histone deacetylase partially purified from B16/BL6 cells", "pIC50": 9.01}
{"Compound": "O=C(CCCCC[C@@H]1NC(=O)[C@H]2CCCN2C(=O)[C@H](Cc2ccccc2)NC(=O)C2(CCCCC2)NC1=O)NO [CHAP55, cyclo(-L-Asu(N-HOH)-Acc6-L-Phe-D-Pro-)] (cyclo([Ac6c]F[dP][Asu](NHOH)))", "System under test": "histone deacetylase partially purified from B16/BL6 cells", "pIC50": 8.66}

[a] CC1(C)NC(=O)[C@H](CCCCCC(=O)NO)NC(=O)[C@H]2CCCN2C(=O)[C@H](Cc2ccccc2)NC1=O [CHAP15, cyclo(-L-Asu(NHOH)-Aib-L-Phe-D-Pro-), reference compound] (cyclo([Aib]F[dP][Asu](NHOH)))
[b] O=C(CCCCC[C@@H]1NC(=O)[C@H]2CCCCN2C(=O)[C@H](Cc2ccccc2)NC(=O)C2(Cc3ccccc3C2)NC1=O)NO [CHAP91, cyclo(-L-Asu(NHOH)-2Ain-L-Phe-D-Pip-)] (cyclo([Aic]F[dPip][Asu](NHOH)))
stdin: Problem: Given the entries a and b , determine which has the lower reported pIC50. Refer to your chosen item by its label in the answer.
stdout: a
